meta.source: PubChem BioAssay AID1963857

Test system: K24384-001-R-PDC KRAS patient-derived spheroid viability;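 further: spheroids exposed to agents for 7 days before readout; 100% = DMSO vehicle control viability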
METHOD SUMMARY: Anticancer human tumor K24384-001-R-PDC patient-derived pancreatic adenocarcinoma cell line growth inhibition [KRAS2]; active means viability on the fitted dose curve at most 10% of control; inactive means the rest
CONDITION CONTEXT: second compound 3.16 µM; first compound 10 µM; spheroids with HUVEC and MSC
Permitted responses: 1 = active, 0 = inactive

Example results:
Task: Per the assay record, what outcome was assigned to CCNC(=O)CC1N=C(c2ccc(Cl)cc2)c2cc(OC)ccc2-n2c(C)nnc21 (stereo unspecified) + C=CC(=O)N1CCN(c2nc(=O)n(-c3c(C)ccnc3C(C)C)c3nc(-c4c(O)cccc4F)c(F)cc23)C(C)C1 ?
Result: 0

Task: How did this test come out for COC(=O)c1ccc2c(C(=Nc3ccc(N(C)C(=O)CN4CCN(C)CC4)cc3)c3ccccc3)c(O)[nH]c2c1 + COc1cc2nc(C)nc(NC(C)c3cc(N)cc(C(F)(F)F)c3)c2cc1OC1CCOC1 ?
Result: 1

Task: In this assay, the call recorded for CCNC(=O)CC1N=C(c2ccc(Cl)cc2)c2cc(OC)ccc2-n2c(C)nnc21 (stereo unspecified) + CNCc1ccccc1-c1csc(C(C)Nc2nc(C)nc3cc(OC)c(OC)cc23)c1 was what?
Result: 1

Task: So what was the verdict on COc1cc(Nc2ncc3c(n2)-c2ccc(Cl)cc2C(c2c(F)cccc2OC)=NC3)ccc1C(=O)O + C=CC(=O)N1CCN(c2nc(OCC3CCCN3C)nc3c2CCN(c2cccc4cccc(C)c24)C3)CC1CC#N in this test?
Result: 0

More entries:
Task: Per the records of this test, what outcome belongs to COC(=O)c1ccc2c(C(=Nc3ccc(N(C)C(=O)CN4CCN(C)CC4)cc3)c3ccccc3)c(O)[nH]c2c1 + C=CC(=O)N1CCN(c2nc(OCC3CCCN3C)nc3c2CCN(c2cccc4cccc(C)c24)C3)CC1CC#N ?
Result: 1

Task: Called result for CCNC(=O)CC1N=C(c2ccc(Cl)cc2)c2cc(OC)ccc2-n2c(C)nnc21 (stereo unspecified) + CC1OCC2(CCN(c3cnc(Sc4ccnc(N)c4Cl)c(N)n3)CC2)C1N
Result: 0

Task: Could you please tell me the result logged for O=C(c1cc(Cc2n[nH]c(=O)c3ccccc23)ccc1F)N1CCN(C(=O)C2CC2)CC1 + C=CC(=O)N1CCN(c2nc(=O)n(-c3c(C)ccnc3C(C)C)c3nc(-c4c(O)cccc4F)c(F)cc23)C(C)C1 in this assay?
Result: 0

Task: So what was the verdict on COc1cc(Nc2ncc3c(n2)-c2ccc(Cl)cc2C(c2c(F)cccc2OC)=NC3)ccc1C(=O)O + C=CC(=O)N1CCN(c2nc(=O)n(-c3c(C)ccnc3C(C)C)c3nc(-c4c(O)cccc4F)c(F)cc23)C(C)C1 in this test?
Result: 0

Task: How did this test come out for O=C(c1cc(Cc2n[nH]c(=O)c3ccccc23)ccc1F)N1CCN(C(=O)C2CC2)CC1 + C=CC(=O)N1CCN(c2nc(OCC3CCCN3C)nc3c2CCN(c2cccc4cccc(C)c24)C3)CC1CC#N ?
Result: 0

Task: Lab log entry: CC(C)NCC(C(=O)N1CCN(c2ncnc3c2C(C)CC3O)CC1)c1ccc(Cl)cc1 (stereo unspecified) + COc1cc2nc(C)nc(NC(C)c3cc(N)cc(C(F)(F)F)c3)c2cc1OC1CCOC1 — outcome as called in the assay?
Result: 0

Task: For this compound, state the assay outcome: Cn1nccc1Nc1nccc(-c2cc3c(s2)C(C)(C)N(CCN2CCOCC2)C3=O)n1 + C=CC(=O)N1CCN(c2nc(=O)n(-c3c(C)ccnc3C(C)C)c3nc(-c4c(O)cccc4F)c(F)cc23)C(C)C1
Result: 0

Task: Write down the call the test reported for this compound. Item: O=C(c1cc(Cc2n[nH]c(=O)c3ccccc23)ccc1F)N1CCN(C(=O)C2CC2)CC1 + COc1cc2nc(C)nc(NC(C)c3cc(N)cc(C(F)(F)F)c3)c2cc1OC1CCOC1
Result: 0

Task: Check the results log: what was the call for O=C(c1cc(Cc2n[nH]c(=O)c3ccccc23)ccc1F)N1CCN(C(=O)C2CC2)CC1 + CC1OCC2(CCN(c3cnc(Sc4ccnc(N)c4Cl)c(N)n3)CC2)C1N ?
Result: 0
